Tested on: HS 578T breast
Assay: NCI-60 one-dose screen, 48 h
Settings: 10 µM unless noted
Compounds without any hit were thinned out: in the full panel of roughly 83,000, 20% have a hit. Calls of active or inactive are those of the source. The calls were made as follows: active = growth percent below 10; inactive = the rest.
Classes used: label 1 = active, label 0 = inactive

Molecule | Class
COC1=CC(c2ccc[nH]2)=N/C1=C\c1[nH]c(C)c(C(=O)CCC(=O)Oc2ccc3c(c2)CCC2C3CC[C@]3(C)C(=O)CC[C@@H]23)c1C (stereo partly drawn) | label 0
COc1ccc(OC)c(NC(=O)c2cc3oc4ccccc4c3cc2O)c1 | label 0
CCCCn1c(Cc2ccc(Cl)cc2)nc2cc(OC)c(OC)cc2c1=O | label 0
O=C(COC(=O)[C@H](C[Se][Se]C[C@H](NC(=O)c1ccc(Br)cc1F)C(=O)OCC(=O)c1ccc(F)cc1)NC(=O)c1ccc(Br)cc1F)c1ccc(F)cc1 | label 1
C/C(=C\CCc1ccoc1)CC/C=C(\C)CCCN1CCC(CO)CC1 | label 0
C/C(=N/N=C(N)N)c1ccc(Cl)cc1 | label 0
COc1ccc2[nH]c(-c3ccccc3)cc2c1 | label 0
C[n+]1c2ccccc2c(NC2CCNCC2)c2[nH]c3ccccc3c21 | label 1
Fc1ccc([C@@H]2CCNC[C@H]2COc2ccc3c(c2)OCO3)cc1 | label 0
COC1CC2CCC(C)C(O)(O2)C(=O)C(=O)N2CCCCC2C(=O)OC(C(C)CC2CCC(O)C(OC)C2)CC(=O)C(C)C=C(C)C(O)C(OC)C(=O)C(C)CC(C)/C=C/C=C/C=C1C (stereo not drawn) | label 0
Cc1cc(NCCCNc2ccnc3cc(Cl)ccc23)nc(N2CCN(C)CC2)n1 | label 0
Fc1ccc(-c2nc(Nc3ccc(-c4nc5ccccc5[nH]4)cc3)nc(N3CCOCC3)n2)cc1 | label 1
CCOc1cc(C(C)(C)C)ccc1C1=N[C@H](c2ccc(Cl)cc2)[C@H](c2ccc(Cl)cc2)N1C(=O)N1CCN(CC#Cc2cccc3c2CN([C@@H]2CCC(=O)NC2=O)C3=O)CC1 | label 0
NC(N)=N/N=C(/c1ccccc1)c1ccc(Cl)cc1 | label 1
COC(=O)C[C@@H]1CC=CC(=O)/C1=C(O)/C=C/c1ccccc1 | label 0
Clc1cc(Cl)c(OCC#CI)cc1Cl | label 0
N#Cc1c2ccccc2c2n1-c1ccccc1OC(c1ccccc1)C2=O (stereo not drawn) | label 0
c1ccc2cc(C[n+]3ccn(CCCCCCCn4cc[n+](Cc5ccc6ccccc6c5)c4)c3)ccc2c1 | label 0
COc1cccc(C2C(C#N)=C(N)Oc3cc(OC)ccc32)c1 (stereo not drawn) | label 0
COc1ccc2c3c(c(OCCCN(C)C)nc2c1)-c1ccc(Cl)cc1C3=O | label 0
COc1cc(OC)c2cc(C(=O)O)c(=O)oc2c1 | label 0
CN1CCN(CC(=O)Nc2nc3c(s2)Nc2cc(Cl)c(Cl)cc2NC3=O)CC1 | label 0
COc1cc2c(c(OC)c1OC)CCc1cnoc1-2 | label 0
CC(=O)c1nc2ccccc2n1CCn1cc(CC(N)C(=O)O)c2ccccc21 (stereo not drawn) | label 0
CCCc1cc(=O)n2c(C(=O)Nc3ccccc3OC)c(C(=O)Nc3ccc(F)cc3)sc2n1 | label 1
CCOc1ccccc1C(=O)OCC(=O)Nc1cccc(S(=O)(=O)N(C)C)c1 | label 0
CN(C(=O)c1ccccc1)N(C)C(=O)c1ccccc1 | label 0
CCC(O)C(C)(C)C (stereo not drawn) | label 0
